System: Enterococcus faecium EFM.384, Daptomycin resistant mutant (14-A)
Type: cell-based
details: MHBc with 50 mg/L calcium, 18-20 hours at 37° C.
Description: Compounds according to Formula I were tested for antimicrobial activity against a panel of organisms. […] In all cases the final concentration of dimethyl sulfoxide incubated with cells is less than or equal to 1%. […] Following incubation, (18-20 hours at 37° C. with aeration at 200 rpm) growth was confirmed visually by placing plates over a viewing apparatus (stand with a mirror underneath) and then the optical density (OD600) was measured using a SpectraMax 340PC^384 plate reader. […]
parameter.measured: Efm384 MIC (µg/mL)
Numbers only, in µg/mL.

I have this molecule here, CCCCCCCCC1CC1C(=O)N[C@@H](Cc1c[nH]c2ccccc12)C(=O)N[C@H](CC(N)=O)C(=O)N[C@@H](CC(=O)O)C(=O)N[C@@H]1C(=O)NCC(=O)N[C@@H](CCCN)C(=O)N[C@@H](CC(=O)O)C(=O)N[C@H](C)C(=O)N[C@@H](CC(=O)O)C(=O)NCC(=O)N[C@H](CO)C(=O)N[C@@H]([C@H](C)CC(=O)O)C(=O)N[C@@H](CC(=O)c2ccccc2N)C(=O)O[C@@H]1C (single isomer, unassigned) [27 isomer II] , and I need its recorded Efm384 MIC.
4

###

System: Enterococcus faecium EFM.384, Daptomycin resistant mutant (14-A)
Type: cell-based
details: MHBc with 50 mg/L calcium, 18-20 hours at 37° C.
parameter.measured: Efm384 MIC (µg/mL)
Numbers only, in µg/mL.

I have this compound here, "CCCCCCCCCCCCCCCOc1ccc(C(=O)N[C@@H](Cc2c[nH]c3ccccc23)C(=O)N[C@H](CC(N)=O)C(=O)N[C@@H](CC(=O)O)C(=O)N[C@@H]2C(=O)NCC(=O)N[C@@H](CCCN)C(=O)N[C@@H](CC(=O)O)C(=O)N[C@H](C)C(=O)N[C@@H](CC(=O)O)C(=O)NCC(=O)N[C@H](CO)C(=O)N[C@@H]([C@H](C)CC(=O)O)C(=O)N[C@@H](CC(=O)c3ccccc3N)C(=O)O[C@@H]2C)cc1" , and I need its recorded Efm384 MIC.
32

###

Test system: Enterococcus faecalis EFS.201 (ATCC 49452)
Assay type: cell-based
details: ATCC 49452
Please provide measured Efs201 MIC for the entries that follow.
One number for each entry, in µg/mL.

For every listed record, write down its Efs201 MIC.
1. CCCCCCCCCC(C)NC(=O)N[C@@H](Cc1c[nH]c2ccccc12)C(=O)N[C@H](CC(N)=O)C(=O)N[C@@H](CC(=O)O)C(=O)N[C@@H]1C(=O)NCC(=O)N[C@@H](CCCN)C(=O)N[C@@H](CC(=O)O)C(=O)N[C@H](C)C(=O)N[C@@H](CC(=O)O)C(=O)NCC(=O)N[C@H](CO)C(=O)N[C@@H]([C@H](C)CC(=O)O)C(=O)N[C@@H](CC(=O)c2ccccc2N)C(=O)O[C@@H]1C (single isomer, unassigned) [14 isomer II]
2. CCCCCCCc1csc(C(=O)N[C@@H](Cc2c[nH]c3ccccc23)C(=O)N[C@H](CC(N)=O)C(=O)N[C@@H](CC(=O)O)C(=O)N[C@@H]2C(=O)NCC(=O)N[C@@H](CCCN)C(=O)N[C@@H](CC(=O)O)C(=O)N[C@H](C)C(=O)N[C@@H](CC(=O)O)C(=O)NCC(=O)N[C@H](CO)C(=O)N[C@@H]([C@H](C)CC(=O)O)C(=O)N[C@@H](CC(=O)c3ccccc3N)C(=O)O[C@@H]2C)c1
3. CCCSc1ccc(-c2csc(C(=O)N[C@@H](Cc3c[nH]c4ccccc34)C(=O)N[C@H](CC(N)=O)C(=O)N[C@@H](CC(=O)O)C(=O)N[C@@H]3C(=O)NCC(=O)N[C@@H](CCCN)C(=O)N[C@@H](CC(=O)O)C(=O)N[C@H](C)C(=O)N[C@@H](CC(=O)O)C(=O)NCC(=O)N[C@H](CO)C(=O)N[C@@H]([C@H](C)CC(=O)O)C(=O)N[C@@H](CC(=O)c4ccccc4N)C(=O)O[C@@H]3C)c2)cc1

1. 0.5
2. 1
3. 8
